# measured-on: VIM-2 (Escherichia coli, UniProt Q5U7L7)
# Construct: made in house; host or cells: E. coli BL21(DE3) derivative, pET-9a
# protocol-summary: MBL inhibition, reporter substrate method, VIM-2
# Type: biochemical
# conditions-used: hydrazine and hydrazide series; read-out: Ki Value VIM-2
Threshold 2 µM. Ki below it: MET. Ki at it or above: NOT MET.

compound-smiles: O=C(O)c1ccccc1CNn1c(Cc2ccc3ccccc3c2)n[nH]c1=S
label: MET
--
compound-smiles: O=C(O)c1ccccc1CNn1c(-c2cccc(-c3ccccc3)c2)n[nH]c1=S
label: MET
--
compound-smiles: O=C(O)c1ccccc1CNn1c(Cc2ccccc2)n[nH]c1=S
label: NOT MET
--
compound-smiles: Cc1ccccc1-c1n[nH]c(=S)n1NCc1ccccc1C(=O)O
label: NOT MET
--
compound-smiles: O=C(O)c1ccccc1CNn1c(-c2ccc3ccccc3c2)n[nH]c1=S
label: NOT MET
--
compound-smiles: O=C(O)c1ccccc1CNn1c(-c2ccccc2)n[nH]c1=S
label: MET
--
compound-smiles: O=C(O)c1ccccc1C(=O)Nn1c(-c2ccccc2)n[nH]c1=S
label: NOT MET

====

# measured-on: NDM-1 (Klebsiella pneumoniae, UniProt C7C422)
# Sequence (C7C422 37-270 limits assumed): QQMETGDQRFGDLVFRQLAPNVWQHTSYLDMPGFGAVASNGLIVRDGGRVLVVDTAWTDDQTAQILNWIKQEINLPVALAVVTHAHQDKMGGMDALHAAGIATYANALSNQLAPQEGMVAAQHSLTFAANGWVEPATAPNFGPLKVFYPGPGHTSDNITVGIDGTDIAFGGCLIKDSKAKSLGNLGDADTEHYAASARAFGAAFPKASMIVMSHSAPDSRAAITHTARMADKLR
# protocol-summary: MBL inhibition, reporter substrate method, NDM-1
# Format: biochemical
# conditions-used: hydrazine series; read-out: Ki Value NDM-1
# Description: Compounds were prepared in DMSO at a final concentration of 50 mM prior to dilution in the assay buffer. The reaction rate was measured as the variation of absorbance observed upon substrate hydrolysis in a UV-Vis spectrophotometer or microplate reader at a wavelength of 300 nm (imipenem, meropenem), 260 nm (cefotaxime), or 482 nm (nitrocefin) and in the presence of a purified MBL enzyme (such as VIM-1, VIM-2, VIM-4, NDM-1, and IMP-1, at a final concentration ranging from 1 to 70 nM). […]
Each item that follows carries a reported Ki.
assay-readout: Ki (µM)

compound-smiles: O=C(O)c1ccccc1CNn1c(CC(c2ccccc2)c2ccccc2)n[nH]c1=S
numeric-value: 16.4

compound-smiles: O=C(O)c1ccccc1CNn1c(-c2cccc(-c3ccccc3)c2)n[nH]c1=S
numeric-value: 8.2

====

# measured-on: CphA (Aeromonas hydrophila)
# Sequence (P26918 28-254): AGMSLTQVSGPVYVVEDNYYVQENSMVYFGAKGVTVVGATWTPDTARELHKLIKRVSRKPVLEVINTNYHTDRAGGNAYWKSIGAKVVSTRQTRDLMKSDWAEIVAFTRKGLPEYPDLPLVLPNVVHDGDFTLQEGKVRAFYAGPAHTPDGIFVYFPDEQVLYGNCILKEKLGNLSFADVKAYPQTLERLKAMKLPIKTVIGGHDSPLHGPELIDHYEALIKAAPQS
pKi: −log10 of the molar value.

compound-smiles: Cc1ccccc1-c1n[nH]c(=S)n1NCc1ccccc1C(=O)O
measured-on: CphA (Aeromonas hydrophila)
pKi: 4.00

====

# measured-on: UniProt Q5U7L7

compound: O=C(O)c1ccccc1CNn1c(-c2ccccc2)n[nH]c1=S [Compound 1]
unit-of-measure: nM
Kd: 358

====

Each item that follows carries a reported Ki.
# measured-on: VIM-4 (Pseudomonas aeruginosa, UniProt A0A0F7KYQ8, S205R)
# Construct: made in house; host or cells: E. coli BL21(DE3) derivative, pET-9a
# protocol-summary: MBL inhibition, reporter substrate method, VIM-4
# Type: biochemical

compound: O=C(O)c1ccccc1CNn1c(-c2cccc(-c3ccccc3)c2)n[nH]c1=S [Compound 3]
measured-on: VIM-4 (Pseudomonas aeruginosa, UniProt A0A0F7KYQ8, S205R)
Ki: 0.57 µM
--
compound: O=C(O)c1ccccc1CNn1c(-c2ccc3ccccc3c2)n[nH]c1=S [Compound 4]
measured-on: VIM-4 (Pseudomonas aeruginosa, UniProt A0A0F7KYQ8, S205R)
Ki: 6.3 µM
--
compound: Cc1ccccc1-c1n[nH]c(=S)n1NCc1ccccc1C(=O)O [Compound 2]
measured-on: VIM-4 (Pseudomonas aeruginosa, UniProt A0A0F7KYQ8, S205R)
Ki: 10 µM
--
compound: O=C(O)c1ccccc1CNn1c(Cc2ccc3ccccc3c2)n[nH]c1=S [Compound 7]
measured-on: VIM-4 (Pseudomonas aeruginosa, UniProt A0A0F7KYQ8, S205R)
Ki: 4.7 µM

Value source: paper PMC7465886
